Readings of IC50 for the listed compounds
Target: Recombinant human cathepsin A (Homo sapiens, UniProt P10619)
Construct: Recombinant human cathepsin A (residues 29-480, with a C-terminal 10-His tag); 10-His (C); purchased R&D Systems 1049-SE
Sequence (P10619 29-312 limits assumed): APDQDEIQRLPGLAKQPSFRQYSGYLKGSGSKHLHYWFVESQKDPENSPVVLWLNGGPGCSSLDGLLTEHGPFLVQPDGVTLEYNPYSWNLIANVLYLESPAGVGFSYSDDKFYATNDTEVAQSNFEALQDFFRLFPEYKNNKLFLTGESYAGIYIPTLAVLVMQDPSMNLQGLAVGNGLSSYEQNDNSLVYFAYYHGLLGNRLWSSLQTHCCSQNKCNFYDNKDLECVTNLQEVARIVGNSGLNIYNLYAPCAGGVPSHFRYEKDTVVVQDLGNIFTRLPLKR
Sequence (P10619 327-480 limits assumed): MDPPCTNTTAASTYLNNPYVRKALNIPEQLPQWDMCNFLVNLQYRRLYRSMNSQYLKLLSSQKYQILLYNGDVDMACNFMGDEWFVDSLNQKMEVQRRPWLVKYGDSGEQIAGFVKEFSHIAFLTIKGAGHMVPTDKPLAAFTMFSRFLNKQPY
Assay: Cathepsin A inhibitory activity
Format: biochemical
Conditions: recombinant human cathepsin A; read-out: Activity (2): Cathepsin A inhibitory activity, IC50 class

Worked set:
O=C(O)C[C@H](NC(=O)c1cc(O)n(-c2cccc(Cl)c2)n1)c1cccc(Cl)c1 : 100 to 1000 nM
O=C(O)C[C@H](NC(=O)c1cc(O)n(-c2cccc(F)c2)n1)c1ccccc1F : 100 to 1000 nM
COc1cccc(F)c1C(CC(=O)O)NC(=O)c1cc(O)n(-c2ccccc2Cl)n1 (stereo not shown) : 100 to 1000 nM

GET /value?item= O=C(O)CC(NC(=O)c1cc(O)n(-c2ccccc2F)n1)c1cc(Cl)ccc1Cl (stereo not shown) &field=IC50 returns < 100 nM
